List of EC50 values.
System: M17-SYNwt cells
Test: α-synuclein cytotoxicity assay (LDH leakage from paraquat-treated α-synuclein over-expressing neuroblastoma cells)
Assay type: cell-based, human
Details: Homo sapiens, Neuroblastoma cell; paraquat 32 mM, 40 hours, LDH release; 10 point curves in duplicate
Your answer is read as µg/mL, so omit the unit and give the number.

Study these solved cases before continuing.
{"columns": ["compound", "EC50 (µg/mL)"],
 "data": [
  ["Cc1ccccc1NC(=O)N1CCN(c2nc(Cc3ccc(F)cc3)ns2)CC1", 5.01],
  ["Cc1ccc(Cc2nsc(N3CCN(S(=O)(=O)c4ccc5ccccc5c4)CC3)n2)cc1", 0.0393],
  ["O=C(NCCN1CCN(c2nc(Cc3ccc(F)cc3)ns2)CC1)c1ccc(F)cc1", 1.99],
  ["CC1CN(c2nc(Cc3ccc(F)cc3)ns2)CCN1C(=O)c1cccc(Cl)c1 (stereo not shown)", 0.14],
  ["CCCCCCCCS(=O)(=O)N1CCN(c2nc(Cc3ccc(C)cc3)ns2)CC1", 1.58]
]}

Query string: Which EC50 is listed for `COc1cccc(S(=O)(=O)N2CCN(c3nc(Cc4ccc(F)cc4)ns3)CC2)c1` ?
Result string: 0.0571

Query string: Suppose we examine the compound `COc1cccc(Cc2nsc(N3CCN(S(=O)(=O)c4ccc(Br)cc4)CC3)n2)c1` ; what EC50 value has been reported?
Result string: 0.028

Query string: I have this compound here, Cc1ccc(Cc2nsc(N3CCN(C(=O)c4ccccc4F)C(C)C3)n2)cc1 (stereo not shown) , and I need its recorded EC50.
Result string: 0.98

###

Tested on: M17-SYNwt cells
Test: α-synuclein cytotoxicity assay (LDH leakage from paraquat-treated α-synuclein over-expressing neuroblastoma cells)
Format: cell-based, human
Settings: Homo sapiens, Neuroblastoma cell; paraquat 32 mM, 40 hours, LDH release; 10 point curves in duplicate
Below, each of the compounds is paired with its reported EC50 value.
Unit µg/mL implied. Number only.

// below: answered compounds
{"columns": ["compound", "numeric value"],
 "data": [
  ["COc1ccc(S(=O)(=O)N2CCN(c3nc(Cc4ccc(Cl)cc4)ns3)CC2)cc1 [Compound 31]", 0.000169],
  ["COc1cccc(Cc2nsc(N3CCN(C(=O)c4ccc(C(C)(C)C)cc4)C(C)C3)n2)c1 (stereo not shown) [Compound 146]", 0.72],
  ["COc1ccc(S(=O)(=O)N2CCN(c3nc(Cc4ccc(F)c(C)c4)ns3)CC2)cc1 [Compound 204]", 0.001]
]}

Then there is this compound:
Query string: Which EC50 value belongs to Cc1ccc(Cc2nsc(N3CCN(CCNC(=O)Cc4ccc(F)cc4)CC3)n2)cc1 [Compound 109] ?
Result string: 3.52

###

Test system: M17-SYNwt cells
Experiment: α-synuclein cytotoxicity assay (LDH leakage from paraquat-treated α-synuclein over-expressing neuroblastoma cells)
Format: cell-based, human
Settings: Homo sapiens, Neuroblastoma cell; paraquat 32 mM, 40 hours, LDH release; 10 point curves in duplicate
Consider the following compounds and their measured log10 EC50 readings.
Reminder: these figures are log10 of reported EC50, in µg/mL before transformation.

Query string: Query: log10 EC50; subject: Cc1ccccc1C(=O)N1CCN(c2nc(Cc3ccc(F)cc3)ns2)CC1 [Compound 152]
Result string: 0.06

Query string: Which log10 EC50 value belongs to Cc1ccc(C(=O)NCCN2CCN(c3nc(Cc4ccc(F)cc4)ns3)CC2)cc1 [Compound 101] ?
Result string: 0.29

Query string: What does the data say about its log10 EC50? Entry: O=C(CCc1ccccc1)N1CCN(c2nc(Cc3ccc(F)cc3)ns2)CC1 [Compound 90]
Result string: 0.15

Query string: For Cc1ccc(Cc2nsc(N3CCN(S(=O)(=O)c4cccc5ccccc45)C(C)C3)n2)cc1 (centres unmarked) [Compound 41] , what is its reported log10 EC50?
Result string: -0.28

Query string: Form field: reported log10 EC50 of CCc1ccc(S(=O)(=O)N2CCN(c3nc(Cc4ccc(F)cc4)ns3)CC2)cc1 [Compound 197]
Result string: -0.62

Query string: Which value of log10 EC50 has been reported for Cc1ccc(Cc2nsc(N3CCN(C(=O)Cc4ccc(F)cc4)C(C)C3)n2)cc1 (centres unmarked) [Compound 3] in the records?
Result string: 0.34

Query string: I am curious: what log10 EC50 value has been reported for O=S(=O)(c1ccccc1)N1CCN(c2nc(Cc3ccc(F)cc3)ns2)CC1 [Compound 198] ?
Result string: -0.84

Query string: What value of log10 EC50 has been recorded for this entry: CCCCCc1ccc(C(=O)NCCN2CCN(c3nc(Cc4ccc(F)cc4)ns3)CC2)cc1 [Compound 94]
Result string: -0.46
